Assay: The drug is tested on Collinsella intestinalis strain: DSM13280 for biotransformation. The drug concentrations were measured before and after a 12-h incubation by liquid-chromatography-coupled mass spectrometry (LC–MS)
Settings: 2 µM
property measured: Bacterial Biotransformation

[[record]]
compound = "Cc1ccc(/C(=C\\CN2CCCC2)c2ccccn2)cc1"
reported_value = "Compound NOT metabolized"

[[record]]
compound = "CC1OC(OC2C(O)CC(OC3C(O)CC(OC4CCC5(C)C(CCC6C5CCC5(C)C(C7=CC(=O)OC7)CCC65O)C4)OC3C)OC2C)CC(O)C1O (stereo unspecified)"
reported_value = "Compound NOT metabolized"

[[record]]
compound = "CN(C(=O)CN(CCO)CC(=O)N(C)C(C)(C)Cc1ccccc1)C(C)(C)Cc1ccccc1"
reported_value = "Compound NOT metabolized"

[[record]]
compound = "CC(C)(C)N.CCC[C@H](N[C@@H](C)C(=O)N1[C@H](C(=O)O)C[C@@H]2CCCC[C@@H]21)C(=O)OCC"
reported_value = "Compound NOT metabolized"

[[record]]
compound = "O=C(O)c1cc(/N=N/c2ccc(S(=O)(=O)Nc3ccccn3)cc2)ccc1O"
reported_value = "Compound metabolized"

[[record]]
compound = "CCOC(=O)C1=C(C)NC(C)=C(C(=O)OC)C1c1cccc([N+](=O)[O-])c1 (stereo unspecified)"
reported_value = "Compound metabolized"

[[record]]
compound = "COc1ccc2c(c1)c(CC(=O)O)c(C)n2C(=O)c1ccc(Cl)cc1"
reported_value = "Compound NOT metabolized"

[[record]]
compound = "CN[C@H]1CC[C@@H](c2ccc(Cl)c(Cl)c2)c2ccccc21"
reported_value = "Compound NOT metabolized"

[[record]]
compound = "CC(=O)Nc1ccc(OC(C)=O)cc1 [DIACETAMATE]"
reported_value = "Compound metabolized"

[[record]]
compound = "Cc1nc2n(c(=O)c1CCN1CCC(c3noc4cc(F)ccc34)CC1)CCCC2O (stereo unspecified)"
reported_value = "Compound NOT metabolized"

[[record]]
compound = "Nc1nnc(-c2cccc(Cl)c2Cl)c(N)n1"
reported_value = "Compound NOT metabolized"


---

Conditions: segatella copri, 12 h, 2 µM
Description: The drug is tested on Prevotella copri strain: DSM18205 for biotransformation. The drug concentrations were measured before and after a 12-h incubation by liquid-chromatography-coupled mass spectrometry (LC–MS)
property measured: Bacterial Biotransformation

[[record]]
molecule = "COc1ccc(/C=C/C(=O)Nc2ccccc2C(=O)O)cc1OC"
reported_value = "Compound metabolized"

[[record]]
molecule = "Clc1ccc(Cn2c(CN3CCCC3)nc3ccccc32)cc1"
reported_value = "Compound NOT metabolized"

[[record]]
molecule = "COc1ccc([C@@H]2Sc3ccccc3N(CCN(C)C)C(=O)[C@@H]2OC(C)=O)cc1"
reported_value = "Compound NOT metabolized"

[[record]]
molecule = "C#C[C@]1(OC(C)=O)CC[C@H]2[C@@H]3CCC4=C[C@@H](OC(C)=O)CC[C@@H]4[C@H]3CC[C@@]21C [ETHYNODIOL DIACETATE]"
reported_value = "Compound NOT metabolized"

[[record]]
molecule = "CCOC(=O)[C@H](CCc1ccccc1)N[C@@H](C)C(=O)N1Cc2ccccc2C[C@H]1C(=O)O"
reported_value = "Compound metabolized"

[[record]]
molecule = "C[N+]12CCC(CC1)C(OC(=O)C(O)(c1ccccc1)c1ccccc1)C2.[Br-] (centres undefined) [CLIDINIUM BROMIDE]"
reported_value = "Compound NOT metabolized"

[[record]]
molecule = "CC(C)c1c(CN(C)C(C)Cc2ccccc2)n(C)n(-c2ccccc2)c1=O (centres undefined)"
reported_value = "Compound metabolized"

[[record]]
molecule = "CC(=O)CCCCn1c(=O)c2c(ncn2C)n(C)c1=O"
reported_value = "Compound NOT metabolized"

[[record]]
molecule = "COc1ccc2c(c1)c(CC(=O)O)c(C)n2C(=O)c1ccc(Cl)cc1"
reported_value = "Compound metabolized"


---

Assay: The drug is tested on Clostridium sp. strain: fecal isolate for biotransformation. The drug concentrations were measured before and after a 12-h incubation by liquid-chromatography-coupled mass spectrometry (LC–MS)
Settings: 2 µM
property measured: Bacterial Biotransformation

[[record]]
compound = "CCN(CC)C(=O)C1(c2ccccc2)CC1CN (centres undefined)"
reported_value = "Compound NOT metabolized"

[[record]]
compound = "CCC(COC(=O)c1cc(OC)c(OC)c(OC)c1)(c1ccccc1)N(C)C.O=C(O)/C=C\\C(=O)O (centres undefined)"
reported_value = "Compound metabolized"

[[record]]
compound = "CCN(CC)CCNC(=O)c1cc(S(C)(=O)=O)ccc1OC [TIAPRIDE]"
reported_value = "Compound NOT metabolized"

[[record]]
compound = "Nc1nc2ccc(OC(F)(F)F)cc2s1 [RILUZOLE]"
reported_value = "Compound metabolized"

[[record]]
compound = "CC(=O)OCC(CCn1cnc2cnc(N)nc21)COC(C)=O [FAMCICLOVIR]"
reported_value = "Compound NOT metabolized"

[[record]]
compound = "CN1CCN(C(=O)O[C@H]2c3nccnc3C(=O)N2c2ccc(Cl)cn2)CC1 [ESZOPICLONE]"
reported_value = "Compound metabolized"

[[record]]
compound = "C=CCc1ccccc1OCC(O)CNC(C)C (centres undefined) [ALPRENOLOL]"
reported_value = "Compound NOT metabolized"

[[record]]
compound = "c1ccc([C@H]2CN3CCSC3=N2)cc1 [LEVAMISOLE]"
reported_value = "Compound metabolized"

[[record]]
compound = "CN1CCN(C2=Nc3ccccc3Oc3ccc(Cl)cc32)CC1.O=C(O)CCC(=O)O [LOXAPINE SUCCINATE]"
reported_value = "Compound NOT metabolized"

[[record]]
compound = "Cc1ccc(S(=O)(=O)NC(=O)NN2CC3CCCC3C2)cc1 (centres undefined) [GLICLAZIDE]"
reported_value = "Compound NOT metabolized"

[[record]]
compound = "COc1cc2nc(N3CCN(C(=O)C4CCCO4)CC3)nc(N)c2cc1OC (centres undefined) [TERAZOSIN]"
reported_value = "Compound NOT metabolized"

[[record]]
compound = "CN1CCC(=C2c3ccccc3CC(=O)c3sccc32)CC1.O=C(O)/C=C/C(=O)O [KETOTIFEN FUMARATE]"
reported_value = "Compound NOT metabolized"

[[record]]
compound = "OCCN(CCO)c1nc(N2CCCCC2)c2nc(N(CCO)CCO)nc(N3CCCCC3)c2n1 [DIPYRIDAMOLE]"
reported_value = "Compound metabolized"

[[record]]
compound = "COC1=CC(=O)C[C@@H](C)[C@]12Oc1c(Cl)c(OC)cc(OC)c1C2=O [GRISEOFULVIN]"
reported_value = "Compound metabolized"

[[record]]
compound = "CCOC(=O)C1=C(C)NC(C)=C(C(=O)OC)C1c1cccc([N+](=O)[O-])c1 (centres undefined) [NITRENDIPINE]"
reported_value = "Compound metabolized"

[[record]]
compound = "CCCc1nn(C)c2c(=O)[nH]c(-c3cc(S(=O)(=O)N4CCN(C)CC4)ccc3OCC)nc12.O=C(O)CC(O)(CC(=O)O)C(=O)O [SILDENAFIL CITRATE]"
reported_value = "Compound metabolized"

[[record]]
compound = "CC(=O)Oc1ccc(C(c2ccc(OC(C)=O)cc2)c2ccccn2)cc1 [BISACODYL]"
reported_value = "Compound metabolized"

[[record]]
compound = "CCCC(C)(COC(N)=O)COC(=O)NC(C)C (centres undefined) [CARISOPRODOL]"
reported_value = "Compound metabolized"

[[record]]
compound = "CNC(=C[N+](=O)[O-])NCCSCc1csc(CN(C)C)n1 [NIZATIDINE]"
reported_value = "Compound metabolized"

[[record]]
compound = "CCOc1ccc2nc(S(N)(=O)=O)sc2c1 [ETHOXZOLAMIDE]"
reported_value = "Compound metabolized"

[[record]]
compound = "O=C(O)c1cc(/N=N/c2ccc(S(=O)(=O)Nc3ccccn3)cc2)ccc1O [SULFASALAZINE]"
reported_value = "Compound metabolized"

[[record]]
compound = "CC#C[C@]1(O)CC[C@H]2[C@@H]3CCC4=CC(=O)CCC4=C3[C@@H](c3ccc(N(C)C)cc3)C[C@@]21C [MIFEPRISTONE]"
reported_value = "Compound metabolized"

[[record]]
compound = "CCCCC(=O)O[C@]1(C(=O)CO)[C@@H](C)C[C@H]2[C@@H]3CCC4=CC(=O)C=C[C@]4(C)[C@@]3(F)[C@@H](O)C[C@@]21C [BETAMETHASONE VALERATE]"
reported_value = "Compound metabolized"

[[record]]
compound = "COc1c(C)c2c(c(O)c1C/C=C(\\C)CCC(=O)OCCN1CCOCC1)C(=O)OC2 [MYCOPHENOLATE MOFETIL]"
reported_value = "Compound metabolized"


---

Conditions: bacteroides thetaiotaomicron, 12 h, 2 µM
Description: The drug is tested on Bacteroides thetaiotaomicron strain: 3731 for biotransformation. The drug concentrations were measured before and after a 12-h incubation by liquid-chromatography-coupled mass spectrometry (LC–MS)
property measured: Bacterial Biotransformation

[[record]]
compound = "CCCCCOC(=O)Nc1nc(=O)n([C@@H]2O[C@H](C)[C@@H](O)[C@H]2O)cc1F"
reported_value = "Compound NOT metabolized"

[[record]]
compound = "CN(C)C(=O)Oc1cc(OC(=O)N(C)C)cc(C(O)CNC(C)(C)C)c1 (stereo unspecified)"
reported_value = "Compound NOT metabolized"

[[record]]
compound = "COC(=O)C(c1ccccc1)C1CCCCN1 (stereo unspecified) [METHYLPHENIDATE]"
reported_value = "Compound NOT metabolized"

[[record]]
compound = "Fc1ccc([C@@H]2CCNC[C@H]2COc2ccc3c(c2)OCO3)cc1"
reported_value = "Compound metabolized"

[[record]]
compound = "O=C1CC2(CCCC2)CC(=O)N1CCCCN1CCN(c2ncccn2)CC1"
reported_value = "Compound NOT metabolized"

[[record]]
compound = "CC(C)(C)NC[C@H](O)COc1ccccc1C1CCCC1.CC(C)(C)NC[C@H](O)COc1ccccc1C1CCCC1.O=S(=O)(O)O [PENBUTOLOL SULFATE]"
reported_value = "Compound NOT metabolized"

[[record]]
compound = "CCN(CC)CC#CCOC(=O)C(O)(c1ccccc1)C1CCCCC1.Cl (stereo unspecified) [OXYBUTYNIN CHLORIDE]"
reported_value = "Compound NOT metabolized"

[[record]]
compound = "CNNCc1ccc(C(=O)NC(C)C)cc1"
reported_value = "Compound NOT metabolized"

[[record]]
compound = "COc1c(C)c2c(c(O)c1C/C=C(\\C)CCC(=O)OCCN1CCOCC1)C(=O)OC2 [MYCOPHENOLATE MOFETIL]"
reported_value = "Compound metabolized"

[[record]]
compound = "CCOc1ccc2nc(S(N)(=O)=O)sc2c1 [ETHOXZOLAMIDE]"
reported_value = "Compound metabolized"

[[record]]
compound = "C[N+]12CCC(CC1)C(OC(=O)C(O)(c1ccccc1)c1ccccc1)C2.[Br-] (stereo unspecified) [CLIDINIUM BROMIDE]"
reported_value = "Compound NOT metabolized"

[[record]]
compound = "CN1CCN(CC/C=C2/c3ccccc3Sc3ccc(S(=O)(=O)N(C)C)cc32)CC1"
reported_value = "Compound NOT metabolized"

[[record]]
compound = "CNCCC(Oc1ccc(C(F)(F)F)cc1)c1ccccc1 (stereo unspecified)"
reported_value = "Compound metabolized"

[[record]]
compound = "COc1cc2nc(N3CCN(C(=O)c4ccco4)CC3)nc(N)c2cc1OC"
reported_value = "Compound NOT metabolized"

[[record]]
compound = "CN(C/C=C/C#CC(C)(C)C)Cc1cccc2ccccc12"
reported_value = "Compound NOT metabolized"

[[record]]
compound = "CC(NC(C)(C)C)C(=O)c1cccc(Cl)c1 (stereo unspecified)"
reported_value = "Compound NOT metabolized"

[[record]]
compound = "CCN(CC)CCOC(=O)C(Cc1cccc2ccccc12)CC1CCCO1.O=C(O)C(=O)O (stereo unspecified) [NAFRONYL OXALATE]"
reported_value = "Compound NOT metabolized"

[[record]]
compound = "O=c1[nH]c2ccccc2n1CCCN1CCC(n2c(=O)[nH]c3cc(Cl)ccc32)CC1"
reported_value = "Compound NOT metabolized"

[[record]]
compound = "COC(=O)Nc1nc2ccc(C(=O)c3ccccc3)cc2[nH]1"
reported_value = "Compound NOT metabolized"

[[record]]
compound = "CCN(CC)C(=O)C1(c2ccccc2)CC1CN (stereo unspecified)"
reported_value = "Compound NOT metabolized"

[[record]]
compound = "Nc1c2c(nc3ccccc13)CCCC2"
reported_value = "Compound NOT metabolized"

